- measured_target: THRB (gene 7068) (UniProt P10828)
- Sequence (P10828 whole entry, looked up): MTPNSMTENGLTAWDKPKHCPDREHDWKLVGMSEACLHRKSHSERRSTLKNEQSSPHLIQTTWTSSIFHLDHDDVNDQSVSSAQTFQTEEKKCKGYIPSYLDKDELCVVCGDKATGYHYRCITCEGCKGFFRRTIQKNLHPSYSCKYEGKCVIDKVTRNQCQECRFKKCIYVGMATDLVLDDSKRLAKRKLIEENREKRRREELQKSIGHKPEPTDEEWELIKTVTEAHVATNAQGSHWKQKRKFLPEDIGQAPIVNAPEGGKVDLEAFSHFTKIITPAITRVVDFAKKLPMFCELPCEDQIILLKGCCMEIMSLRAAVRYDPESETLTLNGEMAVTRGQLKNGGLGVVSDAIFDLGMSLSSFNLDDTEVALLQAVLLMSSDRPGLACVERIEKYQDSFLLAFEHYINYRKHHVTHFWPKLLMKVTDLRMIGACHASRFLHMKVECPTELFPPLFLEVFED
- procedure_text: TOX21_TRB_BLA_Antagonist_Followup_ratio: Tox21 Thyroid Hormone Receptor beta Antagonism Beta-lactamase (BLA) Follow-Up Assay, Ratio (AID 2283958)
Results filed as inconclusive are left out. Active and inactive are the calls of the source. Rule for the calls: active = hit-call score of the fitted dose curve at least 0.9, where 1 is the maximum; inconclusive = response in the unintended direction; inactive = score below 0.9.
Thanks in advance; please answer with one of these: active, inactive

As a guide, the following entries are already answered.
- compound: "Cc1nc(-c2ccc(OCC(C)C)c(C#N)c2)sc1C(=O)O"
  qualitative_label: "inactive"
- compound: "Cc1nc2ccccc2n1Cc1ccc(Cl)cc1"
  qualitative_label: "inactive"
- compound: "CO[C@H]1C[C@@H]2CC[C@@H](C)[C@@](O)(O2)C(=O)C(=O)N2CCCC[C@H]2C(=O)O[C@H]([C@H](C)C[C@@H]2CC[C@@H](OCCO)[C@H](OC)C2)CC(=O)[C@H](C)/C=C(\\C)[C@@H](O)[C@@H](OC)C(=O)[C@H](C)C[C@H](C)\\C=C/C=C/C=C/1C"
  qualitative_label: "inactive"
- compound: "Oc1c(I)cc(I)c2cccnc12"
  qualitative_label: "inactive"
- compound: "COc1ccc(/C=C/C(=O)Nc2ccccc2C(=O)O)cc1OC"
  qualitative_label: "inactive"
- compound: "NC(N)=NCc1cccc(I)c1"
  qualitative_label: "inactive"

Query string: # fetch the recorded call for CC1(C)N=C(N)N=C(N)N1c1ccc(Cl)cc1 here
Result string: inactive

Query string: # fetch the recorded call for CC(C)=CCC1=C(O)c2ccccc2C(=O)C1=O here
Result string: inactive

Query string: # fetch the recorded call for CC[C@@]1(O)C[C@@H]2CN(CCc3c([nH]c4ccccc34)[C@@](C(=O)OC)(c3cc4c(cc3OC)N(C)[C@H]3[C@@](O)(C(=O)OC)[C@H](OC(C)=O)[C@]5(CC)C=CCN6CC[C@]43[C@@H]65)C2)C1 here
Result string: active

Query string: # fetch the recorded call for CO[C@H](C(=O)[C@@H](O)[C@@H](C)O)C1Cc2cc3cc(O[C@H]4C[C@@H](O[C@H]5C[C@@H](O)[C@H](O)[C@@H](C)O5)[C@@H](O)[C@@H](C)O4)c(C)c(O)c3c(O)c2C(=O)[C@H]1O[C@H]1C[C@@H](O[C@H]2C[C@@H](O[C@H]3C[C@](C)(O)[C@H](O)[C@@H](C)O3)[C@H](O)[C@@H](C)O2)[C@H](O)[C@@H](C)O1 (stereo partly specified) here
Result string: active

Query string: # fetch the recorded call for O=C(O)c1cccc(-c2noc(-c3ccccc3F)n2)c1 here
Result string: inactive

====

- procedure_text: ATG_CRE_CIS: Attagene CIS-FACTORIAL HepG2 Assay for human cAMP Responsive Element (CRE) binding protein 3 (AID 2282926)
- condition_parameters: HepG2 CRE cis-reporter, Attagene multiplexed mRNA; actives raise or lower the signal
Activity calls are given as the source filed them. The calls were made as follows: active = hit-call score of the fitted dose curve at least 0.9, where 1 is the maximum; inactive = score below 0.9.

- chem_smiles: "CC(C)=CCOC(=O)c1ccccc1"
  outcome: "inactive"
- chem_smiles: "CC(=O)Nc1c(I)c(NC(C)=O)c(I)c(C(=O)O)c1I"
  outcome: "inactive"
- chem_smiles: "COCCCN"
  outcome: "inactive"

====

- measured_target: Cellular tumor antigen p53 (Homo sapiens) (UniProt P04637)
- Sequence (P04637 whole entry, looked up): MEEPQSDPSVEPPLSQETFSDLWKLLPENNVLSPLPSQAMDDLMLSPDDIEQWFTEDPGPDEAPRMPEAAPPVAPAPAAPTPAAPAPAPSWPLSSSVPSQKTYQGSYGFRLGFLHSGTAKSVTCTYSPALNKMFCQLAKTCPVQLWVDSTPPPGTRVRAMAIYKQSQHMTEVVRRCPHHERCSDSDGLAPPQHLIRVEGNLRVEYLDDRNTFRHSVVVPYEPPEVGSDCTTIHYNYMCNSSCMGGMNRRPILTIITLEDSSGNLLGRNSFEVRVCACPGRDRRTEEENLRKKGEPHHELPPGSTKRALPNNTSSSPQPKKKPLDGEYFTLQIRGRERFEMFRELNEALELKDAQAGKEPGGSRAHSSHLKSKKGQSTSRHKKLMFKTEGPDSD
- procedure_text: TOX21_p53_BLA_p4_ratio: Tox21 HCT-116 p53 Agonism Beta-lactamase Assay, Ratio, Phase 4 (AID 2283601)
Records with an inconclusive call do not appear. Activity calls are given as the source filed them. The calls were made as follows: active = hit-call score of the fitted dose curve at least 0.9, where 1 is the maximum; inconclusive = response in the unintended direction; inactive = score below 0.9.
Thanks in advance; please answer with one of these: active, inactive

- compound: "COc1cccc(OC)c1C(=O)N[C@@H]1C(=O)N2[C@@H]1SC(C)(C)[C@@H]2C(=O)O"
  measured_target: "Cellular tumor antigen p53 (Homo sapiens) (UniProt P04637)"
  qualitative_label: "inactive"

Query string: # fetch the recorded call for c1ccc2sc(SN3CCOCC3)nc2c1 here
Result string: inactive

Query string: # fetch the recorded call for CC1(C)C[C@@H]1C(=O)N/C(=C\CCCCSC[C@H](N)C(=O)O)C(=O)O here
Result string: inactive

Query string: # fetch the recorded call for CN1[C@@H]2CC[C@H]1CC(OC(=O)C(O)c1ccccc1)C2 (some centres undefined) here
Result string: inactive

Query string: # fetch the recorded call for CC(C)(C)OCC1CO1 (centres undefined) here
Result string: inactive

Query string: # fetch the recorded call for CCCCCCCCCCCCCCCCSCC(COC)COP(=O)([O-])OCC[N+](C)(C)C (centres undefined) here
Result string: inactive

Query string: # fetch the recorded call for Cc1cc(Cl)c(C)cc1Cl here
Result string: inactive

Query string: # fetch the recorded call for Cc1ccc2nc(-c3ccc(N)cc3)sc2c1S(=O)(=O)O here
Result string: inactive

Query string: # fetch the recorded call for CCc1cc(C(N)=S)ccn1 here
Result string: inactive

Query string: # fetch the recorded call for CCc1ccc(S(=O)(=O)O)cc1 here
Result string: inactive

Query string: # fetch the recorded call for CCCCCCCCCCCCCCCCCCOCC(O)CO (centres undefined) here
Result string: inactive

Query string: # fetch the recorded call for Cc1c(C)c2c(c(C)c1O)CC[C@@](C)(CCC[C@H](C)CCC[C@H](C)CCCC(C)C)O2 here
Result string: inactive

Query string: # fetch the recorded call for CC[C@@]1(O)C(=O)OCc2c1cc1n(c2=O)Cc2cc3c(CN(C)C)c(O)ccc3nc2-1 here
Result string: active

Query string: # fetch the recorded call for COc1ccc(C(=O)c2ccc(OC)cc2O)c(O)c1 here
Result string: inactive

====

- measured_target: CCAAT/enhancer-binding protein beta (Homo sapiens) (UniProt P17676)
- Sequence (P17676 whole entry, looked up): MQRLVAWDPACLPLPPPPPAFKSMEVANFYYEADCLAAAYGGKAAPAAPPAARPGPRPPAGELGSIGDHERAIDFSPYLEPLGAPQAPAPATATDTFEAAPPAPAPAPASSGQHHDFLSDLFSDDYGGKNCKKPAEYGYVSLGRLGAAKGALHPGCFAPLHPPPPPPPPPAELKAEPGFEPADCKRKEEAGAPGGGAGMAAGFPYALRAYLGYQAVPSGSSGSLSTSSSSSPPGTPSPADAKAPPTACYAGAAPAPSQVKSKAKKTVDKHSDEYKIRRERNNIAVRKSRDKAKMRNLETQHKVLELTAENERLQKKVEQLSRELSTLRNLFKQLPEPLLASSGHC
- procedure_text: ATG_C_EBP_CIS: Attagene CIS-FACTORIAL HepG2 Assay for human CCAAT/Enhancer Binding Protein (C/EBP) beta (AID 2282927)
- condition_parameters: HepG2 Attagene cis-factorial transcription factor reporter; actives raise or lower the signal
Calls of active or inactive are those of the source. How the source made its calls: active means hit-call score of the fitted dose curve at least 0.9, where 1 is the maximum; inactive means score below 0.9.
Thanks in advance; please answer with one of these: Yes = active, No = inactive

As a guide, the following entries are already answered.
- compound: "CCOC(=O)c1ccccc1"
  qualitative_label: "Yes"
- compound: "Cc1ccccc1S(N)(=O)=O"
  qualitative_label: "No"
- compound: "CCCCCCCCCCC1CO1 (centres undefined)"
  qualitative_label: "No"

Query string: # fetch the recorded call for Cc1cc2nc3c(=O)[nH]c(=O)nc-3n(C[C@H](O)[C@H](O)[C@H](O)CO)c2cc1C here
Result string: No

====

- measured_target: human Peroxisome Proliferator-activated Receptor delta (PPARd), PPARD (gene 5467) (UniProt Q03181)
- Sequence (Q03181 whole entry, looked up): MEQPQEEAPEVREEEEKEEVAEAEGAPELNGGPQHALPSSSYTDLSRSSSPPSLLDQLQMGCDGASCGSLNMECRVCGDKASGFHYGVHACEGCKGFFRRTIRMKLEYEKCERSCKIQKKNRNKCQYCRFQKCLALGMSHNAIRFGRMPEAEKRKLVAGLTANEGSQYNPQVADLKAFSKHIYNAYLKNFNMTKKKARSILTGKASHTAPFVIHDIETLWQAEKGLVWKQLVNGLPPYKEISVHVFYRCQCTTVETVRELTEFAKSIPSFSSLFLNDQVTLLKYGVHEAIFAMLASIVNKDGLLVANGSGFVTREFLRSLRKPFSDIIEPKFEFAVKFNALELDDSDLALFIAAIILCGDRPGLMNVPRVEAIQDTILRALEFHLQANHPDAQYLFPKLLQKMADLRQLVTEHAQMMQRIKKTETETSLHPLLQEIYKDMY
- procedure_text: ATG_PPARd_TRANS: Attagene TRANS-FACTORIAL HepG2 Assay for human Peroxisome Proliferator-activated Receptor delta (PPARd) (AID 2283002)
Results filed as inconclusive are left out. Active and inactive are the calls of the source. The calls were made as follows: active = hit-call score of the fitted dose curve at least 0.9, where 1 is the maximum; inconclusive = response in the unintended direction; inactive = score below 0.9.
Thanks in advance; please answer with one of these: t = active, f = inactive

As a guide, the following entries are already answered.
- molecule: "Cc1cc(-n2nc3ccc(Cl)cc3n2)c(O)c(C(C)(C)C)c1"
  qualitative_label: "f"
- molecule: "O=C(O)/C=C/C(=O)O"
  qualitative_label: "f"
- molecule: "CCO[Si](CCCN)(OCC)OCC"
  qualitative_label: "f"
- molecule: "Nc1nnc(-c2ccc([N+](=O)[O-])o2)o1"
  qualitative_label: "f"

Query string: # fetch the recorded call for CC(C)(Oc1ccc(Cl)cc1)C(=O)O here
Result string: f

Query string: # fetch the recorded call for O=C1CCCCCCCCCCCCCC1 here
Result string: f

Query string: # fetch the recorded call for CCC(C)(CCC(C)C)C(=O)O (stereo not drawn) here
Result string: f

Query string: # fetch the recorded call for CC(C)=CCOC(=O)c1ccccc1 here
Result string: f

Query string: # fetch the recorded call for COC(=O)c1ccccc1 here
Result string: f

Query string: # fetch the recorded call for COc1c2occc2cc2ccc(=O)oc12 here
Result string: f

Query string: # fetch the recorded call for C[C@H]1C[C@H]2[C@@H]3CCC4=CC(=O)C=C[C@]4(C)[C@@]3(F)[C@@H](O)C[C@]2(C)[C@@]1(O)C(=O)CO here
Result string: f

Query string: # fetch the recorded call for O=S(=O)(O)c1cccc2ccccc12 here
Result string: f

Query string: # fetch the recorded call for OCCc1ccccn1 here
Result string: f

Query string: # fetch the recorded call for c1cc(N(CC2CO2)CC2CO2)ccc1Cc1ccc(N(CC2CO2)CC2CO2)cc1 (stereo not drawn) here
Result string: f

Query string: # fetch the recorded call for C=CCOCC(CC)(CO)COCC=C here
Result string: f

Query string: # fetch the recorded call for COCCCN here
Result string: f

Query string: # fetch the recorded call for CCC(=O)OCc1ccc(OC)cc1 here
Result string: f

Query string: # fetch the recorded call for CC/C=C\CCCCCO here
Result string: f

Query string: # fetch the recorded call for CC/C=C\CC/C=C/C(OCC)OCC here
Result string: f

Query string: # fetch the recorded call for OCCOCCOCCOCCOCCO here
Result string: f

Query string: # fetch the recorded call for CCCCCCC(O)CCCCCCCCCCC(=O)OC (stereo not drawn) here
Result string: t
